B1: Chromodomain-helicase-DNA-binding protein 4, residues 365 to 417; numbered along this chain, Q14839 (parent)
chain: YETDHQDYCEVCQQGGEIILCDTCPRAYHMVCLDPDMEKAPEGKWSCPHCEKE

Variants of: B1
method notes: abundance fitness (aPCA) (normalised: wild type 0, dead -1); higher = more abundant; growth selection in yeast, the domain comes from the species named
protocol conditions: Homo sapiens
# abundance fitness per entry

mutation label	abundance fitness
E38W	-0.281
H49R	-0.044
E38Y	-0.093
S46L	-0.168
A40N	-0.351
K44E	0.079
G43N	-0.076
K39Q	-0.323
A27C	-0.02
E42S	-0.129
H5K	-0.044
C47V	-1.11
D36W	-0.37
C24Q	-1.15
E51C	-0.227
H5S	0.224
H5P	0.19
D22S	-0.272
K44Y	-0.31
C32N	-1.04
M37G	-0.199
Y1D	-0.863
C32P	-0.794
P48D	-0.16
K44Q	0.309
V11M	0.223
C12W	-0.948
G16R	0.009
A27V	-0.077

Where do these numbers come from? They come from the Human Domainome abundance scans (Beltran et al. 2025).
